Give measured Ki for each item. Keep answers brief.
Target: FKBP12 (Homo sapiens)
Assay: Ki test procedure: inhibition of peptidyl-prolyl isomerase (rotamase) activity, chymotrypsin-coupled assay
Type: biochemical
Details: apparent Ki, Table C; read-out: Ki
Numbers only, in µM.

State the recorded Ki for every item in the following list.
1. COC(=O)C(=O)N1CCCCC1C(=O)OCCCC1CCCCC1 (stereo not drawn)
2. COC(=O)C(=O)N1CCCCC1C(=O)OCCCC1CCCC1 (stereo not drawn)
3. COc1ccc(CCCCOC(=O)C2CCCCN2C(=O)C(=O)c2cc(OC)c(OC)c(OC)c2)cc1 (stereo not drawn)

[out]
[20, 35, 0.013]

---

Please go through the items and note down their Ki.
Biological target: FKBP12 (Homo sapiens, UniProt P62942)
Sequence (P62942 whole entry, species assumed): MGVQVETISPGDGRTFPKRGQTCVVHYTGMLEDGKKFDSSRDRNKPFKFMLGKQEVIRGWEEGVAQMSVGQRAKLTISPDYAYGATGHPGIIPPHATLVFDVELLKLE
Assay: Ki test procedure: inhibition of peptidyl-prolyl isomerase (rotamase) activity, chymotrypsin-coupled assay
Format: biochemical
Details: Table V comments; read-out: Ki rotamase

Reference set, count: 2
- CCC(C)(C)C(=O)C(=O)N1CCCC[C@H]1C(=O)O: > 10 µM
- O=C(SCCCc1ccccc1)[C@@H]1CCCN1C(=O)NC12CC3CC4(CC(C3)(C4)C1)C2: 0.149 µM

Next molecule, please.
Reported Ki ( CCC(C)(C)C(=O)C(=O)N1CCC[C@H]1C(=O)O ) = ≥ 7.74 µM
